Experiment: Kinetic solubility in PBS
Assay type: physicochemical
Details: phosphate-buffered saline, pH 7.4, aqueous buffer, kinetic from dmso stock
// reported solubility at 2 h per item
All answers are understood in µM, so give the number only.

>  <molecule>
O=P(O)(O)CP(=O)(O)OC[C@H]1O[C@@H](n2ccc3c(-c4ccc5ccccc5c4)nc(Cl)nc32)[C@H](O)[C@@H]1O

>  <solubility at 2 h, µM>
84

$$$$

Reported solubility at 2 h for Nc1nc(-c2cc3ccccc3o2)c2ccn([C@@H]3O[C@H](COP(=O)(O)CP(=O)(O)O)[C@@H](O)[C@H]3O)c2n1 [11C.8] : what is it?
87

Reported solubility at 2 h for O=P(O)(O)CP(=O)(O)OC[C@H]1O[C@@H](n2ccc3c(-c4cccc5ccccc45)ncnc32)[C@@H](F)[C@@H]1O [34A.6] : what is it?
167

Reported solubility at 2 h for `O=P(O)(O)CP(=O)(O)OC[C@H]1O[C@@H](n2ccc3c(-c4ccccc4)ncnc32)[C@H](O)[C@@H]1O` : what is it?
80

Reported solubility at 2 h for Cc1nc(-c2cccc3ccccc23)c2ccn([C@@H]3O[C@H](COP(=O)(O)CP(=O)(O)O)[C@@H](O)[C@H]3O)c2n1 [18E.6] : what is it?
89
